Values from the RNAGym collection of RNA variant scans (doi:10.1038/nmeth.2970)

B1: NELF-E aptamer (parent)
chain: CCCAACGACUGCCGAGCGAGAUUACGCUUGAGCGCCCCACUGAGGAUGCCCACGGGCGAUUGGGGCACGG

# Variants of: B1
# EXPERIMENT: HiTS-RAP
# ASSAY_CONDITIONS: with NELF-E (Drosophila)
Give Kd for every item shown.
# output: number + unit

The variant identified as G14U G48A registered its Kd at 13.2 nM

Sample C6G C57U ; Kd observed: 6.1 nM

response.value for C12G U22G (field: Kd) = 5.79 nM

Data point: G54U G56U ; Kd = 5.48 nM

Kd recorded for this variant, U29G C40G , is 5.85 nM

Briefly, Kd measured for G26A U41G : 4.19 nM

Memo: A31G G64A , reported Kd: 10.8 nM

Entry A4G G42U , Kd reported as 9.27 nM

Entry under test: A4G G20A . Its Kd was 5.15 nM

Kd for A8U G64U is 9.52 nM

Value of Kd reported for the variant G7U G63A is 19.9 nM

Sure, the documented Kd for U23G C37A is 13.4 nM

Lab note: C13G G54U gave Kd of 7.78 nM

The recorded Kd for A4U C53U is 3.61 nM

// sample U23G G65A , its Kd was 4.87 nM

// recorded Kd for A4G U23C : 4.96 nM

Kd reading for C13G C27U : 4.45 nM

Briefly, Kd measured for A24G U47A : 13 nM

Input U10G G18A . Output Kd: 5.37 nM

Kd reported for this variant U41G U60C : 9.67 nM

Lab note: G16U U29G gave Kd of 6.38 nM

Lab note: G11A gave Kd of 5.29 nM

For reference, reported Kd for C9G A19U stands at 7.14 nM

Query A8U G64C yields Kd of 7.62 nM

According to the records, this variant A52U G63A displays Kd of 50.8 nM

Entry C9G C50A ; Kd = 23.5 nM

// U29G G63U : Kd value = 12.4 nM

Briefly, Kd measured for U29G G34A : 7.56 nM

Briefly, Kd measured for C6G G64C : 6.39 nM

According to the records, this variant C12G C36U displays Kd of 7.29 nM

Lookup result for A4G U29A ; measured Kd: 5.44 nM

Given item C6U C9U , the value recorded as its Kd is 5.38 nM

Entry under test: C17U . Its Kd was 4.56 nM

# Kd of U61A A67U = 49.7 nM

Memo: A4G C57G , reported Kd: 7.07 nM

In plain terms, C13A U23G has a documented Kd of 5.96 nM

Sample U47A A67G ; Kd observed: 12 nM

The measured Kd associated with C6G C33G reads 5.77 nM

Reported Kd for A5G A21U was 6.3 nM

Short answer for U10G U41G : Kd was 5.17 nM

Reported Kd of U10G G63C : 43 nM

The variant listed as A4G C53U has a reported Kd of 3.85 nM

According to the records, this variant G7A C12G displays Kd of 6.93 nM

Form field Kd, entry A4G G55A : 8.61 nM

get_value(item= A8U G11U , readout=Kd) returns 6.61 nM

Short answer for C17U U29G : Kd was 5.35 nM
